- Measurement Target: ErbB3 on rat Schwann cells (rat) (UniProt Q62799)
- Sequence (Q62799 20-1339): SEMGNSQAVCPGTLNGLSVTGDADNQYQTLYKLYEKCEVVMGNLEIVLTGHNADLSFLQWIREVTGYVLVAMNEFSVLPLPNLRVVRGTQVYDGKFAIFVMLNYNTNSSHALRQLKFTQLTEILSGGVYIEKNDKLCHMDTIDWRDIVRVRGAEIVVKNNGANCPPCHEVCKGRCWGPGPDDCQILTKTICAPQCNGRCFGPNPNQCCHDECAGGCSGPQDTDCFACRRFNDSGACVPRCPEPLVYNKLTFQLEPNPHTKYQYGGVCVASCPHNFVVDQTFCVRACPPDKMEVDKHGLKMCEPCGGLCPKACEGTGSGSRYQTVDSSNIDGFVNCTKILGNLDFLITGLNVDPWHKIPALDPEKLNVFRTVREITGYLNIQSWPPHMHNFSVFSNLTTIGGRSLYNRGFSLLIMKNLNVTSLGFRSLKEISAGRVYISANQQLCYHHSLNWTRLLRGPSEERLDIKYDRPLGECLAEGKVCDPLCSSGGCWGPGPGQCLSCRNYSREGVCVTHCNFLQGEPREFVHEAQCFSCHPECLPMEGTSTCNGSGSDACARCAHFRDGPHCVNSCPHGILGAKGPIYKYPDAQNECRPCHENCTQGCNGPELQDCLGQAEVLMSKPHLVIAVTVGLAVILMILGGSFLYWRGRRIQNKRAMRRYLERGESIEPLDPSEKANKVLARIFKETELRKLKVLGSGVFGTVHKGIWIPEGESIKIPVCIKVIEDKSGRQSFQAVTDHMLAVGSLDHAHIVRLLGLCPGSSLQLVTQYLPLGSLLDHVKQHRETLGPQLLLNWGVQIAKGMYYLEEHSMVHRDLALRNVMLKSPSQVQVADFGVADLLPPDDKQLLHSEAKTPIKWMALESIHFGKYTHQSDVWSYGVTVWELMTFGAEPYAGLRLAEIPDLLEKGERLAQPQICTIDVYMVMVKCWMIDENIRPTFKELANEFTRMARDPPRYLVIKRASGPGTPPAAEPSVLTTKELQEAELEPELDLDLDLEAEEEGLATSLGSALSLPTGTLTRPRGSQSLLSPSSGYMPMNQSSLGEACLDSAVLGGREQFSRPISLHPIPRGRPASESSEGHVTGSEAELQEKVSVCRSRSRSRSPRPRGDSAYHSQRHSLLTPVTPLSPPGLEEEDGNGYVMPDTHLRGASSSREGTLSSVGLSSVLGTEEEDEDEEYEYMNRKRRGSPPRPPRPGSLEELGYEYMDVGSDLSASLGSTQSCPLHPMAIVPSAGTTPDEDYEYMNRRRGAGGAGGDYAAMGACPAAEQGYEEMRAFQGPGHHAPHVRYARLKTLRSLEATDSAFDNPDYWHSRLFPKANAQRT
- Assay Info: cell-based or functional assay
Exercise: for every item that follows, state its recorded Schwann cells (SC) (ErbB3) Avg EC50.

huNRG1(S177-Q237)(3F2)::GG::huFcSEFL2 (Pb) (Fc fusion) SHLVKCGESHKSFCVNGGECFMIEGPSNPSRYLCKCPNEFTGDRCQDDFMASFYKAEELYQGGDKTHTCPPCPAPELLGGPSVFLFPPKPKDTLMISRTPEVTCVVVDVSHEDPEVKFNWYVDGVEVHNAKTKPCEEQYGSTYRCVSVLTVLHQDWLNGKEYKCKVSNKALPAPIEKTISKAKGQPREPQVYTLPPSREEMTKNQVSLTCLVKGFYPSDIAVEWESNGQPENNYKTTPPVLDSDGSFFLYSKLTVDKSRWQQGNVFSCSVMHEALHNHYTQKSLSLSPGK = > 10 µM
huNRG1(S177-Q237)(NRGE1C)::GG::huFcSEFL2 (Pb) (Fc fusion) SHLVKCGEKHKSFCVNGGECFMIEGPSNPSRYLCKCPNEFTGDRCQEDFMASFYKAEELYQGGDKTHTCPPCPAPELLGGPSVFLFPPKPKDTLMISRTPEVTCVVVDVSHEDPEVKFNWYVDGVEVHNAKTKPCEEQYGSTYRCVSVLTVLHQDWLNGKEYKCKVSNKALPAPIEKTISKAKGQPREPQVYTLPPSREEMTKNQVSLTCLVKGFYPSDIAVEWESNGQPENNYKTTPPVLDSDGSFFLYSKLTVDKSRWQQGNVFSCSVMHEALHNHYTQKSLSLSPGK = > 10 µM
huNRG1(S177-Q237)(_200E)::GG::huFcSEFL2 (Pb) (Fc fusion) SHLVKCAEKEKTFCVNGGECFMVEDLSNPSRYLCKCPNEFTGDRCQNYVMASFYKAEELYQGGDKTHTCPPCPAPELLGGPSVFLFPPKPKDTLMISRTPEVTCVVVDVSHEDPEVKFNWYVDGVEVHNAKTKPCEEQYGSTYRCVSVLTVLHQDWLNGKEYKCKVSNKALPAPIEKTISKAKGQPREPQVYTLPPSREEMTKNQVSLTCLVKGFYPSDIAVEWESNGQPENNYKTTPPVLDSDGSFFLYSKLTVDKSRWQQGNVFSCSVMHEALHNHYTQKSLSLSPGK = 0.00482 µM

[ask] Provide one value: measured Schwann cells (SC) (ErbB3) Avg EC50 of huNRG1(S177-Q237)(NRGE1G)::GG::huFcSEFL2 (Pb) (Fc fusion) SHLVKCGEKHKSFCVNGGECYMVEGSSIPSRYLCKCPNEFTGDRCQNDFMASFYKAEELYQGGDKTHTCPPCPAPELLGGPSVFLFPPKPKDTLMISRTPEVTCVVVDVSHEDPEVKFNWYVDGVEVHNAKTKPCEEQYGSTYRCVSVLTVLHQDWLNGKEYKCKVSNKALPAPIEKTISKAKGQPREPQVYTLPPSREEMTKNQVSLTCLVKGFYPSDIAVEWESNGQPENNYKTTPPVLDSDGSFFLYSKLTVDKSRWQQGNVFSCSVMHEALHNHYTQKSLSLSPGK
[reply] > 10 µM
